Biological target: Epidermal growth factor receptor (Homo sapiens)
Assay: EGFR binders on small-molecule microarrays, primary screen, biochemical, small-molecule microarray, 635 nm fluorescence (AID 1104);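 further: score merges 667 nm emission intensity with spot signal to noise over triplicate slides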
Settings: EGFR binding, higher = more signal
Where composite z-score equals or exceeds -0.2, the correct label is t; where it does not, the label is f.

Problem: Dear colleague, could you confirm whether COc1ccc(NN2C(C(O)c3ccc([N+](=O)[O-])cc3)C=CC3C(=O)N(C4CCCCC4)C(=O)C32)cc1 (stereo not given) has composite z-score at or above -0.2?
Result: t

Problem: // next record `C=CCOC(=O)[C@@H]1[C@H]2C(=O)O[C@H](c3ccccc3)[C@H](c3ccccc3)N2[C@H](c2ccc(OCCOC(=O)[C@@H]3C[C@@H]4C(=O)N[C@@H](CCCC[N+](C)(C)C)C(=O)N4[C@@H]3c3cccc(OCCO)c3)cc2)[C@@]12C(=O)Nc1ccc(I)cc12`
Result: t

Problem: // next record `C=C/C=C/[C@H]1C(=C)CN([C@@H](Cc2ccccc2)C(=O)OC)[C@@H]1[C@H](O)Cc1ccccc1`
Result: f

Problem: // next record `CN(C)CCCCCCNC(=O)[C@@H]1C[C@@H]2C(=O)N[C@@H](CCCCN)C(=O)N2[C@@H]1c1cccc(OCCO)c1`
Result: t

Problem: // next record `CCOC(=O)C[C@H]1[C@H](OC(=O)c2cc3ccccc3oc2=O)[C@@H](NC(=O)Cc2ccc(OC)cc2)c2cc(OCCCO)ccc2N1C(=O)c1ccccc1`
Result: t

Problem: // next record `CCCCC(=C=CC[C@@H](O)c1ccccc1OCCO)CCO`
Result: f

Problem: // next record `C=C(COC)/C(=C/C[C@@H](OC(C)=O)c1ccc(OCCO)cc1)c1cc(C(=O)OC)ccc1OC`
Result: t

Problem: // next record `COCCOC(=O)N1C(=O)[C@@]2(c3cc(C#CCCO)ccc31)[C@H](c1ccc(OCCO)cc1)N1[C@H](c3ccccc3)[C@H](c3ccccc3)OC(=O)[C@H]1[C@@H]2C(=O)N1CCN(c2ncccn2)CC1`
Result: t

Problem: // next record COc1ccc(C(O)C2C=CC3C(=O)NC(=O)C3N2Nc2ccccn2)cc1 (stereo not given)
Result: t

Problem: // next record O=C1NC(=O)C2C1C=CC(C(O)C(c1ccccc1)c1ccccc1)N2Nc1ccc(Cl)cc1Cl (stereo not given)
Result: f

Problem: // next record CN1C(=O)C2C=CC(C(O)c3cc(C(F)(F)F)cc(C(F)(F)F)c3)N(N3CCCCC3)C2C1=O (stereo not given)
Result: f

Problem: // next record COc1ccc(C(O)C2C=CC3C(=O)N(C)C(=O)C3N2N2CCCCC2)c2ccccc12 (stereo not given)
Result: t

Problem: // next record `COc1ccc([Si](C)(C)[C@H]2[C@H](CCO)O[C@@]3(C(=O)N(C)c4c(Br)cc(C)cc43)[C@@H]2C)cc1`
Result: t

Problem: // next record `C#CCN(CC1=CCCCC1)[C@H](c1ccccc1Br)[C@@H](O)Cc1ccccc1`
Result: f

Problem: // next record `O=C(NCc1ccc(F)cc1)[C@H]1C[C@H]2C(=O)N[C@@H](Cc3ccccc3)C(=O)N2[C@H]1c1ccc(O)cc1`
Result: f

====

Assign z-score to each entry below.
Assay: E. coli acrAB mutant growth effects, primary screen, E. coli filamentation inducers, strain DRC39, OD650, 48 h (AID 1179);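 further: screen aims at cell division blockers that make cells filament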
Conditions: E. coli DRC39 delta-acrAB growth, higher = more signal, called active from +8 up or from −8 down
Give only the figure.

Problem: Look at this compound and give its reported z-score. `CC(C)OC(=O)C=C1C[C@@H](c2ccccc2C(F)(F)F)O[C@@H](c2ccccc2C(F)(F)F)O1`
Result: 0.217

Problem: // next record `COC(=O)[C@@]1(Cc2ccc(F)cc2)[C@H]2c3cc(C(=O)N4CCCC4)n(Cc4ccc(C)o4)c3C[C@H]2CN1C(=O)c1ccccc1`
Result: 0.548

Problem: // next record COCCCNC(=O)C1N=C(c2ccc(OCCCO)cc2)N(c2ccccc2)O1 (stereo not drawn)
Result: 1.03

Problem: // next record O=C1OCCC/C=C\[C@H]2OC34C=CCN(Cc5ccccc5)C(=O)[C@H]3N(CCCCCCO)C(=O)[C@@H]4C12 (stereo partly drawn)
Result: 1.58

Problem: // next record `C=C[C@H](COC(C)=O)N(C(=O)OC(C)(C)C)S(=O)(=O)c1ccc(Br)cc1`
Result: 0.386

Problem: // next record C=CCC(OC(C)=O)[C@@H]1[C@@H](N(Cc2ccc(-c3ccccc3)cc2)C(=O)Cc2ccc(F)cc2)c2cc(OCCCO)ccc2N1C(=O)c1ccc(-c2ccccc2)cc1 (stereo partly drawn)
Result: 1.6

Problem: // next record `COc1ccc([C@H]2C[C@H]3C(Br)=C[C@@H]2C(=O)[C@]32CO2)cc1`
Result: 0.406

Problem: // next record O=C1C2C=CC(C(O)C3CCCCC3)N(Nc3ccc([N+](=O)[O-])cc3)C2C(=O)N1c1ccccc1 (stereo not drawn)
Result: -1.96

====

Experiment: small-molecule binders of probe aNOTCH2, primary screen, biochemical, small-molecule microarray, 635/667 nm fluorescence (AID 1121);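 further: score merges feature fluorescence read at 667 nm with its signal to noise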
Details: higher = more signal
Where composite z-score equals or exceeds -0.1, the correct label is 1; where it does not, the label is -1.

Problem: Dear colleague, could you confirm whether `NCCCCCNC(=O)[C@@H]1C[C@@H]2C(=O)NCC(=O)N2[C@@H]1c1ccc(O)cc1` has composite z-score at or above -0.1?
Result: -1

Problem: // next record `C=C(CCCC)C(=O)CC[C@H](OC(C)=O)c1cccc(OCCO)c1`
Result: -1

Problem: // next record `NC(=O)[C@@H]1[C@H]2C(=O)O[C@H](c3ccccc3)[C@H](c3ccccc3)N2[C@H](c2ccc(O)cc2)[C@@]12C(=O)Nc1ccc(C#CC3(O)CCCCCC3)cc12`
Result: -1

Problem: // next record O=C1NC(=O)C2C1C=CC(C(O)c1cccc3ccccc13)N2Nc1ccccn1 (stereo not drawn)
Result: 1

Problem: // next record `COc1ccc([C@H]2OC[C@@H]3CC4(CC=CC4)C(=O)N32)cc1`
Result: 1

Problem: // next record `COCCOC(=O)N1C(=O)[C@@]2(c3cc(C#CCCO)ccc31)[C@H](C(=O)N1CCN(c3ncccn3)CC1)[C@H]1C(=O)O[C@H](c3ccccc3)[C@H](c3ccccc3)N1[C@@H]2c1ccccc1OCCO`
Result: -1

Problem: // next record CC(C)c1ccc(NN2C(C(O)C(c3ccccc3)c3ccccc3)C=CC3C(=O)N(c4ccccc4)C(=O)C32)cc1 (stereo not drawn)
Result: 1

====

Test: E. coli acrAB mutant growth effects, primary screen, E. coli filamentation inducers, strain DRC39, OD650, 24 h (AID 1178);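 further: growth measured as culture turbidity by optical density at 650 nm; test concentration not given here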
Conditions: higher = more signal, called active from +8 up or from −8 down
Where z-score equals or exceeds -0.08, the correct label is 1; where it does not, the label is -1.

Problem: Dear colleague, could you confirm whether `C=CCOC(=O)[C@H]1[C@@H]2C(=O)O[C@@H](c3ccccc3)[C@@H](c3ccccc3)N2[C@@H](c2ccc(OCCOC(=O)[C@@H]3C[C@@H]4C(=O)N[C@@H](CCCC[N+](C)(C)C)C(=O)N4[C@@H]3c3ccc(O)cc3)cc2)[C@]12C(=O)Nc1ccccc12` has z-score at or above -0.08?
Result: 1

Problem: // next record O=C1C2C=CC(C(O)c3ccc(F)cc3)N(Nc3ccccc3F)C2C(=O)N1c1ccccc1 (stereo unspecified)
Result: -1

Problem: // next record `O=C1O[C@H](c2ccccc2)[C@H](c2ccccc2)N2[C@H]1[C@@H](C(=O)O)[C@]1(C(=O)Nc3ccc(C#CCCO)cc31)[C@H]2c1ccc(O)cc1`
Result: 1

Problem: // next record `C=CCNC(=O)[C@@H]1[C@H]2C(=O)O[C@H](c3ccccc3)[C@H](c3ccccc3)N2[C@H](c2ccc(OCCO)cc2)[C@@]12C(=O)Nc1ccc(C#Cc3ccc(OC)cc3)cc12`
Result: -1

Problem: // next record COc1ccc(NN2C(C(O)c3ccc([N+](=O)[O-])cc3)C=CC3C(=O)N(C4CCCCC4)C(=O)C32)cc1 (stereo unspecified)
Result: -1

====

Target: Focal adhesion kinase 1 (Homo sapiens) (UniProt Q05397)
Sequence (Q05397 whole entry, looked up): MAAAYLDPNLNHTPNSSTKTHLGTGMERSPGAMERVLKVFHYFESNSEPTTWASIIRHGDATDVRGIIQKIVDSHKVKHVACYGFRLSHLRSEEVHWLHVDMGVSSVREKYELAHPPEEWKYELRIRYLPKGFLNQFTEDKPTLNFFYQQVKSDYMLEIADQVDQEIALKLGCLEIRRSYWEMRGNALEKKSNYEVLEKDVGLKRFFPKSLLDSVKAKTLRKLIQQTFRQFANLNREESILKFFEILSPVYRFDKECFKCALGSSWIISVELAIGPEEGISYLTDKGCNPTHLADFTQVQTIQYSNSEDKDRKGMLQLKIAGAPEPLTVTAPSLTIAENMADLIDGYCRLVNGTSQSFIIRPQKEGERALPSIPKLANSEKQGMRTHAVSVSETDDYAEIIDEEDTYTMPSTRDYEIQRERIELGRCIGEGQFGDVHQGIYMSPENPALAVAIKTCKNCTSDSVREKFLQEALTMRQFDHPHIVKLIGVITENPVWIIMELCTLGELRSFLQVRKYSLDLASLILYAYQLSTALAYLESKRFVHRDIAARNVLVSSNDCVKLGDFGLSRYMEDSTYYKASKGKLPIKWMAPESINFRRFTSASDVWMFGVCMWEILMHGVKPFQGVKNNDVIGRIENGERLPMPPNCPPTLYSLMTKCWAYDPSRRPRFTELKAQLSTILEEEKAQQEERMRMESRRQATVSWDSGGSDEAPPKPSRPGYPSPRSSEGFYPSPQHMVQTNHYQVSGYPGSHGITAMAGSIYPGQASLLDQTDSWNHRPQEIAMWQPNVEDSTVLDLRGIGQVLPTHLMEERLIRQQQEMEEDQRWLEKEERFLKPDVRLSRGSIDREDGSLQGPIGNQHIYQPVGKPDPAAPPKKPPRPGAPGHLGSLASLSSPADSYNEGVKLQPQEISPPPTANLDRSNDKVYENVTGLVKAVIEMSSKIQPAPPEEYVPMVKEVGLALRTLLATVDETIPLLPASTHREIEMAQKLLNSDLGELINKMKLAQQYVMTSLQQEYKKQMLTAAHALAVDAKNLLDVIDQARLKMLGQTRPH
Experiment: small-molecule microarray binders of FAK, primary screen, biochemical, 635/667 nm fluorescence, BSA, DTT (AID 1130);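 further: composite of spot emission at 667 nm and signal to noise over triplicate slides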
Details: PTK2 binding, 635 nm fluorescence, higher = more signal
Where composite z-score equals or exceeds 0.3, the correct label is Satisfied; where it does not, the label is Not satisfied.

Problem: Dear colleague, could you confirm whether `COCCOC(=O)N1C(=O)[C@@]2(c3cc(C#CC4=CCCCC4)ccc31)[C@H](c1ccc(O)cc1)N1[C@H](c3ccccc3)[C@H](c3ccccc3)OC(=O)[C@H]1[C@@H]2C(N)=O` has composite z-score at or above 0.3?
Result: Satisfied

Problem: // next record COc1ccc(C(O)C2C=CC3C(=O)NC(=O)C3N2Nc2ccccn2)c2ccccc12 (centres undefined)
Result: Not satisfied

Problem: // next record `O=C1O[C@@H](c2ccccc2)[C@@H](c2ccccc2)N2[C@@H](c3ccc(OCCO)cc3)[C@]3(C(=O)Nc4ccccc43)[C@@H](C(=O)NC[C@H](O)c3ccccc3)[C@H]12`
Result: Not satisfied

Problem: // next record `COc1ccc(C(=O)Nc2ccc(CN3C(=O)[C@@]4(O[C@@H](CC(=O)N5CCC[C@H]5CO)[C@H]([Si](C)(C)c5ccc(OC)cc5)[C@H]4C)c4ccccc43)cc2)cc1`
Result: Satisfied

Problem: // next record O=C1OCCC=C[C@H]2OC34C=CCN(CCN5CCOCC5)C(=O)[C@H]3N(CCCCCCO)C(=O)[C@@H]4C12 (some centres undefined)
Result: Satisfied

Problem: // next record O=C1OCCC/C=C\[C@H]2OC34C=CCN(Cn5nnc6ccccc65)C(=O)[C@H]3N(CCO)C(=O)[C@@H]4C12 (some centres undefined)
Result: Not satisfied

Problem: // next record `COC(=O)c1c(CC[C@@H](CO)NC(=O)N2CCC[C@H]2Cn2cc(-c3ccccn3)nn2)oc(C(C)=O)c1C(=O)OC`
Result: Not satisfied

Problem: // next record `CCOC(=O)C[C@H]1[C@H](OC(=O)c2cc3ccccc3oc2=O)[C@@H](NC(=O)Cc2ccc(OC)cc2)c2cc(OCCCO)ccc2N1C(=O)c1ccccc1`
Result: Not satisfied

Problem: // next record `CC(C)C[C@@H]1NC(=O)[C@H]2C[C@@H](C(=O)NCCCCCCN)[C@@H](c3ccc(O)cc3)N2C1=O`
Result: Satisfied

Problem: // next record CC(=O)n1cc(C(O)C2C=CC3C(=O)N(C)C(=O)C3N2Nc2ccccc2)c2ccccc21 (centres undefined)
Result: Not satisfied

Problem: // next record CN1C(=O)C2C=CC(C(O)c3ccc(-c4ccccc4)s3)N(N(c3ccccc3)c3ccccc3)C2C1=O (centres undefined)
Result: Not satisfied

Problem: // next record CC(CO)N1C(=O)[C@@H]2C3C(=O)OCCC/C=C\[C@H]3OC23C=CCN(c2ccc4ccccc4c2)C(=O)[C@@H]13 (some centres undefined)
Result: Not satisfied

Problem: // next record [N-]=[N+]=NCc1ccccc1C[C@]1(C(=O)NCC(O)CO)N=C(c2ccc(OCCCO)cc2)O[C@H]1c1ccccc1 (some centres undefined)
Result: Not satisfied
